Test system: HOP-92 NSCLC
Assay: NCI-60 one-dose screen, 48 h (100 = growth as untreated, 0 = no growth, -100 = all killed)
Details: 10 µM unless noted
Protocol: Growth inhibition of the HOP-92 human Non-Small Cell Lung tumor cell line is measured as a screen for anti-cancer activity. Cells are grown in 96 well plates and exposed to the test compound for 48 hours. Compounds are tested at a single concentration, which is 10^-5 M for most compounds. The reported endpoint is percent growth (GI% or GIPRCNT), where numbers from 0 - 100% represent growth inhibition, and numbers from -100% - 0 represent cell death. […]
Compounds without any hit were thinned out: in the full panel of roughly 83,000, 20% have a hit.
quantity: growth (%)
// units = %; emit number, no label

Examples from the recorded data:
molecule: Cc1cc(C)c(-c2c(O)c(Br)c(-c3c(C)cc(C)c(Br)c3C)c(O)c2Br)c(C)c1Br
value observed: -3.74
//
molecule: N#Cc1nc(-c2ccc(F)cc2)oc1S(=O)(=O)N1CCN(c2ccc(F)cc2)CC1
value observed: 123
//
molecule: O=C(O)c1cn(C2CC2)c2cc(N3CCN(C(=O)N/N=C/c4ccccc4)CC3)c(F)cc2c1=O
value observed: 89
//
molecule: CCNCc1ccc(O)c2ncccc12
value observed: -8.24
//
molecule: O=C1Nc2ccc(F)cc2/C1=N/c1nnc(Sc2ccccc2)s1
value observed: 96.9
//
molecule: NNC(=S)N/N=C/c1ccccn1
value observed: 21

Prompt: Which measured growth value corresponds to Cc1cc(N2CCCCC2)nc(N2CCN(CC(=O)Nc3ccc4c(ccn4Cc4ccccc4)c3)CC2)n1 ?
Completion: 23.6

Prompt: // same read-out, input: CC(C)CCSc1nc(Nc2ccccc2)c(C#N)c(-c2ccccc2)n1
Completion: 21.8

Prompt: // same read-out, input: N=C(N)c1ccc(-c2ccc(-c3ccc(Cl)cc3)o2)o1
Completion: 39.5

Prompt: // same read-out, input: CN(Cc1cnc2nc(N)nc(N)c2n1)c1c(Cl)cc(C(=O)NC(CCC(=O)O)C(=O)O)cc1Cl (stereo not given)
Completion: 15.4

Prompt: // same read-out, input: CCNC(=O)Oc1ccc(/C(=C(/C)Cc2ccc(OC)cc2)c2ccc(OCCN3CCCC3)cc2)cc1
Completion: 61.8

Prompt: // same read-out, input: CCOC(=O)C(=Cc1cccc(C#N)c1)C(=O)OCC
Completion: 63.2

Numbers sourced from PubChem BioAssay (NCI).
